# Experiment summary: Inhibition of capsid protein in HBV infected in human HepDES19 cells assessed as inhibition of viral replication incubated for 3 days by strand preferential qPCR analysis
Please use Yes for EC50 under 3000 nM and No for everything else, ties included.

                                   molecule  answer_label
0  CCOC(=O)C1=C(CN2CCC3(CC2)CC(=O)NC3=O)NC(c2nccs2)=NC1c1ccc(F)cc1Br (stereo not drawn)           Yes
1  CCOC(=O)C1=C(CN2CCC3(CC2)OCCO3)NC(c2nccs2)=NC1c1ccc(F)cc1Br (stereo not drawn)           Yes
2  CCOC(=O)C1=C(CN2CCC3(CC2)CNC(=O)C3)NC(c2nccs2)=NC1c1ccc(F)cc1Br (stereo not drawn)            No
3  CCOC(=O)C1=C(CN2CCC3(CNC(=O)C3)C2)NC(c2nccs2)=NC1c1ccc(F)cc1Br (stereo not drawn)           Yes
4  Nc1ccn([C@@H]2CS[C@H](CO)O2)c(=O)n1 [Epivir]           Yes
5  CCOC(=O)C1=C(CN2CCC3(CC2)CN(C(=O)OC(C)(C)C)C3)NC(c2nccs2)=NC1c1ccc(F)cc1Br (stereo not drawn)            No
6  CCOC(=O)C1=C(CN2CC3(CC2=O)CN(C(=O)OC(C)(C)C)C3)NC(c2nccs2)=NC1c1ccc(F)cc1Br (stereo not drawn)            No

For the next question, use this molecule.
Take the molecule CCOC(=O)C1=C(CN2CCC3(CC2)CNC3=O)NC(c2nccs2)=NC1c1ccc(F)cc1Br (stereo not drawn) and say whether its EC50 is less than 3000 nM. Yes

* * *

# Experiment summary: Inhibition of capsid protein in HBV infected in human HepDES19 cells assessed as inhibition of viral replication incubated for 3 days by strand preferential qPCR analysis
Measured quantity: EC50

Examples with their reported EC50 follow.
>>> print(df.to_string())
                                   molecule  recorded_result
0  CCOC(=O)C1=C(CN2CCC3(CC(=O)N(Cc4ccccc4)C3=O)C2)NC(c2nccs2)=NC1c1ccc(F)cc1Br (stereo unspecified)           2.1 µM
1  CCOC(=O)C1=C(CN2CCC3(CCNC3=O)CC2)NC(c2nccs2)=NC1c1ccc(F)cc1Br (stereo unspecified)          3.43 µM
2  CCOC(=O)C1=C(CN2CCC3(CCN(C(=O)OC(C)(C)C)C3)C2)NC(c2nccs2)=NC1c1ccc(F)cc1Br (stereo unspecified)          4.83 µM

EC50 lookup needed for CCOC(=O)C1=C(CN2CC3(CCN(C(=O)OC(C)(C)C)C3)CC2=O)NC(c2nccs2)=NC1c1ccc(F)cc1Br (stereo unspecified) , thanks. 10 µM

Do the same for CCOC(=O)C1=C(CN2CCC3(CCN(C(=O)OC(C)(C)C)C3)C2=O)NC(c2nccs2)=NC1c1ccc(F)cc1Br (stereo unspecified) please 5.17 µM

Do the same for CCOC(=O)C1=C(CN2CCC3(C2)CN(C(=O)OC(C)(C)C)C3)NC(c2nccs2)=NC1c1ccc(F)cc1Br (stereo unspecified) please 8.83 µM
